System: Klebsiella pneumoniae
Experiment: Antibacterial activity against colistin-susceptible NDM-1/carbapenemase-producing Klebsiella pneumoniae assessed as inhibition of growth at 50 uM after 18 hrs
Format: functional, organism-based
Calls of active or inactive are those of the source. The rule behind the calls is not given here.
measurement_type: growth inhibition (GI)

In the examples that follow, each entry is paired with its recorded growth inhibition (GI).
# mol_smiles, target, measurement_type, endpoint_result
records = [
    ("NCCOc1ccc(Cl)cc1C(=O)Nc1ccc([N+](=O)[O-])cc1Cl", "Klebsiella pneumoniae", "growth inhibition (GI)", "inactive"),
    ("CN(C)CCOc1ccc(Cl)cc1C(=O)Nc1ccc([N+](=O)[O-])cc1Cl", "Klebsiella pneumoniae", "growth inhibition (GI)", "inactive"),
    ("O=C(Nc1ccc([N+](=O)[O-])cc1Cl)c1cc(Cl)ccc1OC1CCNCC1", "Klebsiella pneumoniae", "growth inhibition (GI)", "inactive"),
    ("CC[C@H](N)COc1ccc(Cl)cc1C(=O)Nc1ccc([N+](=O)[O-])cc1Cl", "Klebsiella pneumoniae", "growth inhibition (GI)", "inactive"),
    ("NCCCCOc1ccc(Cl)cc1C(=O)Nc1ccc([N+](=O)[O-])cc1Cl", "Klebsiella pneumoniae", "growth inhibition (GI)", "Active"),
]

input: Can you look up the measured growth inhibition (GI) of "O=C(Nc1ccc([N+](=O)[O-])cc1Cl)c1cc(Cl)ccc1OCCN1CCNCC1" for me?
output: inactive

input: May I ask what growth inhibition (GI) has been recorded for "NCCOCCOc1ccc(Cl)cc1C(=O)Nc1ccc([N+](=O)[O-])cc1Cl" ?
output: inactive
